All values here come from patent US20110039780A1.

Reported Ka values follow for various binders
# System Tested: T1, vWF A1 domain (UniProt P04275 1261-1468, limits assumed)
# T1 construct: domain: A1; also called vWF A1 fragment
# Assay Overview: binding constant; method not stated in Example 3
Response body: numeric value in M⁻¹, unit text excluded.

A selection of reference data follows.
{"Binder": "GPIbα fusion protein variant 3V/C65S (Fc fusion, not shown: large carriers, also called 3V/C-S) HPICEVSKVASHLEVNCDKRNLTALPPDLPKDTTILHLSENLLYTFSLATLMPYTRLTQLNLDRSELTKLQVDGTLPVLGTLDLSHNQLQSLPLLGQTLPALTVLDVSFNRLTSLPLGALRGLGELQELYLKGNELKTLPPGLLTPTPKLEKLSLANNNLTELPAGLLNGLENLDTLLLQENSLYTIPKGFFGSHLLPFAFLHGNPWLCNCEILYFRRWLQDNAENVYVWKQVVDVVAVTSNVASVQCDNSDKFPVYKYPGKGCPTLGDEGDTDLYDYYPEEDTEGDKVR", "Ka [M⁻¹]": "1.5e+09"}
{"Binder": "GPIb-290/2V/FFF-Ig (GPIb-290/2V-Ig with Tyr-276, 278, 279 changed to phenylalanine) (Fc fusion, Non-sulfated chimera; also called GPIbα-290/2V/FFF-Ig; GPIbα-290-2V/FFF-Ig; not shown: human IgG1 Fc domain) HPICEVSKVASHLEVNCDKRNLTALPPDLPKDTTILHLSENLLYTFSLATLMPYTRLTQLNLDRCELTKLQVDGTLPVLGTLDLSHNQLQSLPLLGQTLPALTVLDVSFNRLTSLPLGALRGLGELQELYLKGNELKTLPPGLLTPTPKLEKLSLANNNLTELPAGLLNGLENLDTLLLQENSLYTIPKGFFGSHLLPFAFLHGNPWLCNCEILYFRRWLQDNAENVYVWKQVVDVKAVTSNVASVQCDNSDKFPVYKYPGKGCPTLGDEGDTDLFDFFPEEDTEGDKVR", "Ka [M⁻¹]": "9.1e+07"}

Then this binder:
Note Ka for the binder shown: GPIbα fusion protein variant 3V (G233V K237V M239V) (Fc fusion, not shown: large carriers) HPICEVSKVASHLEVNCDKRNLTALPPDLPKDTTILHLSENLLYTFSLATLMPYTRLTQLNLDRCELTKLQVDGTLPVLGTLDLSHNQLQSLPLLGQTLPALTVLDVSFNRLTSLPLGALRGLGELQELYLKGNELKTLPPGLLTPTPKLEKLSLANNNLTELPAGLLNGLENLDTLLLQENSLYTIPKGFFGSHLLPFAFLHGNPWLCNCEILYFRRWLQDNAENVYVWKQVVDVVAVTSNVASVQCDNSDKFPVYKYPGKGCPTLGDEGDTDLYDYYPEEDTEGDKVR
1.5e+09
